study.target: human α-thrombin (Homo sapiens)
Assay type: biochemical
run.parameters: pH 7.4, 25 °C, Spectrozyme TH
endpoint.name: HS (Hill slope)

>>> experimental_result("C=CCOC(=O)c1c(C)oc2cc(OC)c(OCc3oc4cc(OC)c(OCc5oc6cc(OC)c(OS(=O)(=O)[O-])cc6c5C(=O)OCC)cc4c3C(=O)OCC)cc12.[Na+] [compound 13]")
3.5
>>> experimental_result("CCOC(=O)c1c(C)oc2cc(OC)c(OCc3oc4cc(OC)c(OCc5oc6cc(OS(=O)(=O)[O-])c(OC)cc6c5C(=O)OCC)cc4c3C(=O)OCC)cc12.[Na+] [compound 23]")
1.2

* * *

Attribute: HS (Hill slope)
study.target: human α-thrombin (Homo sapiens)
Assay type: biochemical
run.parameters: pH 7.4, 25 °C, Spectrozyme TH
endpoint.name: HS (Hill slope)

>>> experimental_result("CCOC(=O)c1c(C)oc2cc(OC)c(OCc3oc4cc(OC)c(OCc5oc6cc(OCC)c(OS(=O)(=O)[O-])cc6c5C(=O)OCC)cc4c3C(=O)OCC)cc12.[Na+]")
2.3
>>> experimental_result("CCOC(=O)c1c(C)oc2cc(OC)c(OCc3oc4cc(OC)c(OCc5oc6cc(OC)c(OS(=O)(=O)[O-])cc6c5C(=O)OC(C)(C)C)cc4c3C(=O)OCC)cc12.[Na+]")
2.1

* * *

study.target: human α-thrombin (Homo sapiens, UniProt P00734)
Format: biochemical
run.parameters: pH 7.4, 25 °C, Spectrozyme TH
Attribute: logIC50
endpoint.name: logIC50

>>> experimental_result("CCOC(=O)c1c(C)oc2cc(OC)c(OCc3oc4cc(OC)c(OCc5oc6cc(OC)c(OS(=O)(=O)[O-])cc6c5C(=O)OC)cc4c3C(=O)OCC)cc12.[Na+]")
"−5.69"
>>> experimental_result("CCOC(=O)c1c(C)oc2cc(OC)c(OCc3oc4cc(OC)c(OCc5oc6cc(OC)c(OCc7oc8cc(OC)c(OS(=O)(=O)[O-])cc8c7C(=O)OCC)cc6c5C(=O)OCC)cc4c3C(=O)OCC)cc12.[Na+]")
"−3.80"
>>> experimental_result("CCOC(=O)c1c(C)oc2cc(OC)c(OCc3oc4cc(OC)c(OCc5oc6cc(OC)c(OS(=O)(=O)[O-])cc6c5C(=O)OC(C)(C)C)cc4c3C(=O)OCC)cc12.[Na+]")
"−3.78"
>>> experimental_result("CCOC(=O)c1c(C)oc2cc(OC)c(OCc3oc4cc(OC)c(OCc5oc6cc(OC)c(OS(=O)(=O)[O-])cc6c5C(=O)OCC)cc4c3C(=O)OCC)cc12.[Na+]")
"−6.17"
>>> experimental_result("C=CCOC(=O)c1c(C)oc2cc(OC)c(OCc3oc4cc(OC)c(OCc5oc6cc(OC)c(OS(=O)(=O)[O-])cc6c5C(=O)OCC)cc4c3C(=O)OCC)cc12.[Na+]")
"−4.51"
>>> experimental_result("CCOC(=O)c1c(C)oc2cc(OC)c(OCc3oc4cc(OC)c(OCc5oc6cc(OCC)c(OS(=O)(=O)[O-])cc6c5C(=O)OCC)cc4c3C(=O)OCC)cc12.[Na+]")
"−5.23"
>>> experimental_result("CCOC(=O)c1c(COc2cc3c(C(=O)O)c(C)oc3cc2OC)oc2cc(OC)c(OCc3oc4cc(OC)c(OS(=O)(=O)[O-])cc4c3C(=O)OCC)cc12.[Na+]")
"−4.18"
>>> experimental_result("CCOC(=O)c1c(C)oc2cc(OC)c(OCc3oc4cc(OC)c(OCc5oc6cc(OS(=O)(=O)[O-])c(OC)cc6c5C(=O)OCC)cc4c3C(=O)OCC)cc12.[Na+]")
"−3.81"

The measurements presented in this section are drawn from paper PMC3717983.
